Attribute: pKd
TARGET OR TEST SYSTEM: T1, recombinant human activated Factor VII (FVIIa) (human, UniProt P08709 61-212; P08709 213-466, ten glutamate residues of the Gla domain may be gamma-carboxylated)
T1 construct: chains tethered by a disulfide bond; also called Factor VIIa; rFVIIa
T1 sequence 1: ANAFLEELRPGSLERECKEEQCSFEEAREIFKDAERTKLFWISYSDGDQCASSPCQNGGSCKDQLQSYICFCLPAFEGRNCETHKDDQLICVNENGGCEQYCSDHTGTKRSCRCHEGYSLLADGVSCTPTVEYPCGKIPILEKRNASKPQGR
T1 sequence 2: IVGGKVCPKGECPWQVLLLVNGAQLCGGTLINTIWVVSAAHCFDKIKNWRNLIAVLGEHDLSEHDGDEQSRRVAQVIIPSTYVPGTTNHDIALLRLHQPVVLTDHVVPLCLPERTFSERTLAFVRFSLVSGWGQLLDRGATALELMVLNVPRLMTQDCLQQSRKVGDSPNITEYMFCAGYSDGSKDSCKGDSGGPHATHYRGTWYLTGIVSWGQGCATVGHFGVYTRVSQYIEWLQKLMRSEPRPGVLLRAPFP
EXPERIMENT: BLI (Fortebio)
By convention, pKd is the negative base-10 log of a molar concentration.

Field: example entries. Status: answers known.
binder="VH SEQ ID NO 586 / VL SEQ ID NO 470 (antibody, IgG4, V domains shown, humanized 11F2; IgG4 S228P/kappa) VH: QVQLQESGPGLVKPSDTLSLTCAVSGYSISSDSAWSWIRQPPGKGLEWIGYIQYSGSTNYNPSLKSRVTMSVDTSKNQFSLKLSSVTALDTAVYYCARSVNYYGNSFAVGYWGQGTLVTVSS VL: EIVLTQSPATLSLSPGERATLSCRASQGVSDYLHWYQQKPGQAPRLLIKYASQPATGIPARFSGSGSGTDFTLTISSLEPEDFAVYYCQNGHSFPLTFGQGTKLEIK" measured_value=7.82
binder="VH SEQ ID NO 570 / VL SEQ ID NO 454 (antibody, IgG4, V domains shown, humanized 11F2; IgG4 S228P/kappa) VH: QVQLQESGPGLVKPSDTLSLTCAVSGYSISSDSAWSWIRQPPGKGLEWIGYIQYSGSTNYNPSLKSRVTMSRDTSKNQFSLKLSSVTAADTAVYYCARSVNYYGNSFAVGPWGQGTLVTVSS VL: EIVLTQSPATLSLSPGERATLSCRASQGVSDYLHWYQQKPGEAPRLLIKYASQPATGIPARFSGSGSGTDFTLTISSLEPEDFAVYYCQNGHSFPLTFGQGTKLEIK" measured_value=8.96
binder="VH SEQ ID NO 650 / VL SEQ ID NO 382 (antibody, IgG4, V domains shown, humanized 11F2; IgG4 S228P/kappa) VH: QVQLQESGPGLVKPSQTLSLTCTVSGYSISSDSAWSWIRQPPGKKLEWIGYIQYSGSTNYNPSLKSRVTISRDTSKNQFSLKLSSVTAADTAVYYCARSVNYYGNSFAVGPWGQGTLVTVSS VL: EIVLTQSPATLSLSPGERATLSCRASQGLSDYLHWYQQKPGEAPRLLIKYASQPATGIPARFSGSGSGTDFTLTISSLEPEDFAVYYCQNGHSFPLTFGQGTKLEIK" measured_value=8.72
binder="VH SEQ ID NO 546 / VL SEQ ID NO 326 (antibody, IgG4, V domains shown, humanized 11F2; IgG4 S228P/kappa) VH: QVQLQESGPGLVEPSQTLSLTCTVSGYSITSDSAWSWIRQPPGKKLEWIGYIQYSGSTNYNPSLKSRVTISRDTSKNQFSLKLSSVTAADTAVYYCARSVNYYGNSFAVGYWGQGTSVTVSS VL: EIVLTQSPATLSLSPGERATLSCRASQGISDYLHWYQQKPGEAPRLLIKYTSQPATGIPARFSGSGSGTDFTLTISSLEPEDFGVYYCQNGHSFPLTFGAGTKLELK" measured_value=9.09

Proceeding to the next binder to report its pKd.
Entry under test: VH SEQ ID NO 594 / VL SEQ ID NO 478 (antibody, IgG4, V domains shown, humanized 11F2; IgG4 S228P/kappa) VH: QVQLQESGPGLVKPSDTLSLTCAVSGYSISSDSAWSWIRQPPGKKLEWIGYIQYSGSTNYNPSLKSRVTMSVDTSKNQFSLKLSSVTALDTAVYYCARSVNYYGNSFAVGPWGQGTLVTVSS VL: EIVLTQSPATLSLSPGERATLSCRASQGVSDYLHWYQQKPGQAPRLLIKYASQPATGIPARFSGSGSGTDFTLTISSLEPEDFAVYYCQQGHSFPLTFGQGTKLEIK . Its pKd was 6.70
